tested on: Key Grass and Sedge Weeds as well as Grass Crops; test: Post-Emergent Test II (Table 6); assay type: in vivo; conditions: SETFA: giant foxtail (Setaria faberi), 140 g ai/ha
REPORTED_METRIC: Visual Growth Reduction (%) 14 Days After Application, SETFA

Nc1cc(-c2ccc(Cl)c(F)c2C(F)F)nc(C(=O)O)c1Cl [Compound 13]
G (0-29)
COC(=O)c1nc(-c2ccc(Cl)c(F)c2Cl)nc(N)c1OC [Compound 42]
G (0-29)

----------
REPORTED_METRIC: melting point

Dear colleague, could you send me melting point for each of the items below? Thanks.
1. COc1ccc(-c2nc(C(=O)O)c(Cl)c(N)c2F)cn1 [Compound 30]
2. Nc1cc(-c2ccc(Cl)nc2Cl)nc(C(=O)O)c1Cl [Compound 1]
3. COC(=O)c1nc(-c2ccc(Cl)c(F)c2OC)nc(N)c1OC [Compound 70]
4. COc1nc(Cl)ccc1-c1cc(N)c(Cl)c(C(=O)O)n1 [Compound 57]

166 to 167 °C
184 °C (dec.)
60 to 61 °C
170 to 171 °C

Dear colleague, could you send me melting point for each of the items below? Thanks.
1. COC(=O)c1nc(-c2ccc(C(F)(F)F)nc2)nc(N)c1Cl [Compound 82]
2. Cc1c(-c2cc(N)c(Cl)c(C(=O)O)n2)ccc(Cl)c1Cl [Compound 28]
3. COC(=O)c1nc(-c2ccc(C(F)(F)F)nc2F)cc(N)c1Cl [Compound 74]
4. COc1c(N)nc(-c2ccc(C(F)(F)F)nc2)nc1C(=O)O [Compound 5]
5. COC(=O)c1nc(-c2ccc(OC(F)F)nc2)c(F)c(N)c1Cl [Compound 71]

179 to 181 °C
174 to 175 °C
138 to 141 °C
188 °C
134 to 136 °C

----------
tested on: Key Broadleaf Weed and Crop Species; assay: Post-Emergent Test II (Table 5); type: in vivo; settings: Helianthus annuus, post-emergence, 336 h, HELAN: sunflower (Helianthus annuus), application rate 70 (kg ai/ha; footnote: g ai/ha), read-out: Visual Growth Reduction (%) 14 Days After Application HELAN
REPORTED_METRIC: pest or weed control at 70 g/ha

Some entries whose results are on file:
COC(=O)c1nc(-c2ccc(Cl)c(F)c2C(=O)O)cc(N)c1Cl
0 to 29%
COC(=O)c1nc(-c2ccc(I)nc2)c(F)c(N)c1Cl
85 to 94%
COC(=O)c1nc(-c2ccc(Cl)c(F)c2Cl)c(F)c(N)c1Cl
95 to 100%
Nc1cc(-c2ccc(Cl)nc2Cl)nc(C(=O)O)c1Cl
75 to 84%

Dear colleague, could you send me pest or weed control at 70 g/ha for each of the items below? Thanks.
1. COC(=O)c1nc(-c2ccc(Cl)nc2Cl)cc(N)c1Cl
2. COC(=O)c1nc(-c2ccc(Cl)nc2OC)cc(N)c1Cl
3. Cc1c(-c2nc(C(=O)O)c(Cl)c(N)c2F)ccc(Cl)c1F

85 to 94%
85 to 94%
95 to 100%

Dear colleague, could you send me pest or weed control at 70 g/ha for each of the items below? Thanks.
1. COC(=O)c1nc(-c2ccc(C(F)(F)F)nc2)c(C)c(N)c1Cl
2. COC(=O)c1nc(-c2ccc(C(F)(F)F)nc2F)cc(N)c1Cl

["95 to 100%", "45 to 59%"]

----------
System: LOLSS
Test: Post-Emergent Test III (Wheat and Barley)
Assay type: in vivo
Details: post-emergence, 504 h; 35 g ai/ha, postemergence; read-out: Visual Growth Reduction (%) 21 Days After Application, LOLSS
Experimental: Seeds of the desired test plant species were planted in Sun Gro MetroMix® 306 planting mixture, which typically has a pH of 6.0 to 6.8 and an organic matter content of about 30 percent, in plastic pots with a surface area of 103.2 square centimeters (cm^2). […] A weighed amount, determined by the highest rate to be tested, of each test compound was placed in a 25 mL glass vial and was dissolved in 4 mL of a 97:3 v/v mixture of acetone and DMSO to obtain concentrated stock solutions. […]
REPORTED_METRIC: pest or weed control at 35 g/ha

Dear colleague, could you send me pest or weed control at 35 g/ha for each of the items below? Thanks.
1. COC(=O)c1nc(-c2ccc(C(F)(F)F)nc2)c(Cl)c(N)c1Cl
2. Nc1c(F)c(-c2ccc(C3CC3)nc2)nc(C(=O)O)c1Cl

0 to 29%
45 to 59%

Dear colleague, could you send me pest or weed control at 35 g/ha for each of the items below? Thanks.
1. Nc1c(Cl)c(C(=O)O)nc(-c2ccc(C(F)(F)F)nc2)c1Cl
2. COC(=O)c1nc(-c2ccc(Cl)c(F)c2OC)c(F)c(N)c1Cl
3. COC(=O)c1nc(-c2ccc(C3CC3)nc2)c(F)c(N)c1Cl

["0 to 29%", "0 to 29%", "95 to 100%"]

----------
test system: Key Grass and Sedge Weeds as well as Grass Crops; assay: Post-Emergent Test II (Table 6); format: in vivo; conditions: post-emergence, 336 h, ZEAMX: maize, corn (Zea mays), 70 g ai/ha, 14 days after application, read-out: Visual Growth Reduction (%) 14 Days After Application ZEAMX
Provide the reported pest or weed control at 70 g/ha of each item.

Cc1c(-c2nc(C(=O)O)c(Cl)c(N)c2F)ccc(C(F)(F)F)c1F
45 to 59%

Dear colleague, could you send me pest or weed control at 70 g/ha for each of the items below? Thanks.
1. Cc1ccc(-c2nc(C(=O)O)c(Cl)c(N)c2F)cn1
2. COC(=O)c1nc(-c2ccc(C(F)(F)F)nc2F)nc(N)c1Cl
3. COC(=O)c1nc(-c2ccc(Cl)nc2F)c(F)c(N)c1Cl
4. COC(=O)c1nc(-c2ccc(C(F)(F)F)c(F)c2C)c(F)c(N)c1Cl
5. COC(=O)c1nc(-c2ccc(Cl)c(F)c2Cl)cc(N)c1Cl
6. COC(=O)c1nc(-c2cccnc2)c(F)c(N)c1Cl
7. COc1nc(C(F)(F)F)ccc1-c1cc(N)c(Cl)c(C(=O)O)n1
8. COC(=O)c1nc(-c2ccc(Cl)nc2Cl)cc(N)c1Cl

1: 0 to 29%; 2: 0 to 29%; 3: 0 to 29%; 4: 0 to 29%; 5: 60 to 74%; 6: 0 to 29%; 7: 0 to 29%; 8: 0 to 29%

Dear colleague, could you send me pest or weed control at 70 g/ha for each of the items below? Thanks.
1. COC(=O)c1nc(-c2ccc(C(F)(F)F)nc2OC)cc(N)c1Cl
2. Cc1c(-c2ccc(C(F)(F)F)nc2)nc(C(=O)O)c(Cl)c1N
3. Nc1cc(-c2ccc(Cl)c(F)c2C(=O)O)nc(C(=O)O)c1Cl
4. Nc1cc(-c2ccc(Cl)c(F)c2CF)nc(C(=O)O)c1Cl
5. COC(=O)c1nc(-c2ccc(Cl)c(F)c2C(=O)O)cc(N)c1Cl
6. Cc1c(-c2cc(N)c(Cl)c(C(=O)O)n2)ccc(Cl)c1F
7. Nc1c(F)c(-c2ccc(I)nc2)nc(C(=O)O)c1Cl
8. COC(=O)c1nc(-c2ccc(C(F)(F)F)nc2)c(F)c(N)c1Cl

["0 to 29%", "60 to 74%", "0 to 29%", "0 to 29%", "0 to 29%", "45 to 59%", "30 to 44%", "75 to 84%"]

Dear colleague, could you send me pest or weed control at 70 g/ha for each of the items below? Thanks.
1. COC(=O)c1nc(-c2ccc(Cl)c(Cl)c2Cl)c(F)c(N)c1Cl
2. COc1c(N)nc(-c2ccc(Cl)c(F)c2C)nc1C(=O)O

1: 75 to 84%; 2: 0 to 29%

----------
tested on: BRAPP: broadleaf signalgrass, Brachiaria platyphylla; experiment: Postemergence Herbicidal Activity in Direct Seeded Rice; format: in vivo; settings: Growth reduction of 80% of plant growth, probit analysis
REPORTED_METRIC: GR80, BRAPP (g ai/ha)
One number for each entry, in g ai/ha.

COC(=O)c1nc(-c2ccc(C(F)(F)F)nc2)c(Cl)c(N)c1Cl [Compound 83]
16
Nc1c(Cl)c(C(=O)O)nc(-c2ccc(C(F)(F)F)nc2)c1Cl [Compound 33]
11
COC(=O)c1nc(-c2ccc(C(F)(F)F)nc2)c(C)c(N)c1Cl [Compound 32]
35

Let's switch to this compound now.
For the compound shown here, COC(=O)c1nc(-c2ccc(C(F)(F)F)nc2)c(F)c(N)c1Cl [Compound 59] , give the reported GR80, BRAPP.
16

----------
system: Key Grass and Sedge Weeds as well as Grass Crops; experiment: Post-Emergent Test II (Table 6); type: in vivo; conditions: post-emergence, 336 h, ZEAMX: maize, corn (Zea mays), 70 g ai/ha, 14 days after application, read-out: Visual Growth Reduction (%) 14 Days After Application ZEAMX
REPORTED_METRIC: pest or weed control at 70 g/ha

Some entries whose results are on file:
COC(=O)c1nc(-c2ccc(Cl)c(F)c2C)c(F)c(N)c1Cl
0 to 29%
Nc1c(Cl)c(C(=O)O)nc(-c2ccc(C(F)(F)F)nc2)c1Cl
60 to 74%
COC(=O)c1nc(-c2ccc(C(F)(F)F)nc2)c(Cl)c(N)c1Cl
75 to 84%
COC(=O)c1nc(-c2ccc(Cl)c(Cl)c2C)cc(N)c1Cl
0 to 29%

Dear colleague, could you send me pest or weed control at 70 g/ha for each of the items below? Thanks.
1. Nc1c(F)c(-c2ccc(C(F)F)nc2)nc(C(=O)O)c1Cl
2. COC(=O)c1nc(-c2c(F)cc(Cl)c(F)c2C)cc(N)c1Cl
3. Cc1c(-c2cc(N)c(Cl)c(C(=O)O)n2)ccc(F)c1F
4. COc1nc(C(F)(F)F)ccc1-c1nc(C(=O)O)c(Cl)c(N)c1F
5. COC(=O)c1nc(-c2ccc(OC)nc2Cl)c(F)c(N)c1Cl

["60 to 74%", "0 to 29%", "0 to 29%", "0 to 29%", "0 to 29%"]
